Test: Measurement of Log P values by HPLC on reversed phase columns (EEC directive 79/831 Annex V.A8), methods [a], [b], [c]
Format: physicochemical
Conditions: reversed-phase HPLC column; method [b]: LC-UV, neutral range, 0.001 molar ammonium acetate solution in water and acetonitrile as eluent (10% to 95% acetonitrile); Table 3, compounds of formula (1)
Measure name: chromatographic logP
Form rule: numeric answer, no unit written next to it.

q: Could you tell me which chromatographic logP is on file for CCOC(=O)c1cc(Cl)nnc1Oc1cncc(C2CC2)c1 ?
a: 2.6

====

Experiment: Measurement of Log P values by HPLC on reversed phase columns (EEC directive 79/831 Annex V.A8), methods [a], [b], [c]
Type: physicochemical
Conditions: reversed-phase HPLC column, method [a]: LC-UV, acidic range, 0.1% formic acid in water and acetonitrile as eluent (10% to 95% acetonitrile); Table 3, compounds of formula (1)
Hi! Just check whether chromatographic logP is below 3. Below gives Fulfilled, equal or above gives Not fulfilled.

# count of solved cases: 5
Smiles code | Group
COC(=O)c1c(Oc2cccc(C(F)F)c2F)nnc(Cl)c1Cl | Not fulfilled
COCCc1c(Cl)nnc(Oc2cccc(C(F)(F)F)c2)c1C(=O)O | Fulfilled
Cc1c(Cl)nnc(Oc2cccc(Cl)c2)c1C(=O)O | Fulfilled
COC(=O)c1c(Oc2cccc(Cl)c2)nnc(Cl)c1C | Not fulfilled
CSc1cc(C(=O)O)c(Oc2cccc(C(F)(F)F)c2)nn1 | Fulfilled

Now for another entry.
q: Decide: chromatographic logP of CCOC(=O)c1cc(C)nnc1Oc1cncc(C(F)(F)F)c1 strictly below 3?
a: Fulfilled

====

Quick reference for LogP among some molecules
Experiment: Measurement of Log P values by HPLC on reversed phase columns (EEC directive 79/831 Annex V.A8), methods [a], [b], [c]
Type: physicochemical
Conditions: HPLC method [a]

The following molecules have reported results that may help.
Molecule | LogP
O=C(NCCc1ccc(C(F)F)cc1)c1cc(Cl)nnc1Oc1cccc(C(F)(F)F)c1 | 3.78^[a]
O=C(NCC(F)(F)c1ccc(C(F)(F)F)cc1Cl)c1cc(Cl)nnc1Oc1cccc(C(F)(F)F)c1 | 4.45^[a]

q: Could you tell me which LogP is on file for O=C(NCC(F)(F)c1ccc(C2CC2)cc1Cl)c1cc(Cl)nnc1Oc1cccc(C(F)(F)F)c1 ?
a: 4.58^[a]

q: // query: O=C(NCC(F)(F)c1ccc(Cl)cc1)c1c(Oc2cccc(C(F)(F)F)c2)nnc(Cl)c1NC1CCCCC1
a: 4.98^[a]

====

Experiment: Measurement of Log P values by HPLC on reversed phase columns (EEC directive 79/831 Annex V.A8), methods [a], [b], [c]
Type: physicochemical
Settings: reversed-phase HPLC column, method [a]: LC-UV, acidic range, 0.1% formic acid in water and acetonitrile as eluent (10% to 95% acetonitrile); Table 3, compounds of formula (1)
Quick reference for chromatographic logP among some compounds
Form rule: numeric answer, no unit written next to it.

Smiles code | chromatographic logP
CCOC(=O)c1cc(Cl)nnc1Oc1cncc(C(F)(F)F)c1 | 3
COC(=O)c1c(Oc2cccc(Cl)c2)nnc(C)c1C | 2.71
COC(=O)c1c(Oc2cccc(C3CC3)c2F)nnc(Cl)c1C | 3.7
COC(=O)c1cc(Cl)nnc1Oc1cccc(C(F)(F)F)n1 | 2.69

q: Could you tell me which chromatographic logP is on file for COC(=O)c1c(Oc2cccc(C(F)(F)F)c2)nnc(Cl)c1C1CC1 ?
a: 3.94

q: // query: COC(=O)c1cc(Cl)nnc1Oc1cccc(C(F)(F)F)c1
a: 3.27

q: // query: CCOC(=O)c1cc(Cl)nnc1Oc1cccc(Br)c1
a: 3.65

q: // query: CCOC(=O)c1c(Oc2cccc(C(F)(F)F)c2)nnc(Cl)c1OCC
a: 4.23

q: // query: CCOC(=O)c1c(Oc2cccc(Cl)c2F)nnc(Cl)c1C
a: 3.88

====

Quick reference for LogP among some compounds
Assay: Measurement of Log P values by HPLC on reversed phase columns (EEC directive 79/831 Annex V.A8), methods [a], [b], [c]
Assay type: physicochemical
Details: method [a]

Compound | Reported
Cc1ccc(C(F)(F)CNC(=O)c2c(Oc3cccc(C(F)(F)F)c3)nnc(C3CC3)c2NC2CC2)c(C)c1 | 4.10^[a]
CNc1c(Cl)nnc(Oc2cccc(C3CC3)c2F)c1C(=O)NCCc1ccc(Cl)cc1Cl | 4.09^[a]
O=C(NCC(F)(F)c1ccc(Cl)cc1Cl)c1cc(Cl)nnc1Oc1cccc(C2CC2)c1F | 4.71^[a]
Cc1ccc(C(F)(F)CNC(=O)c2c(Oc3cccc(C(F)(F)F)c3)nnc(Cl)c2NC2CC2C2CC2)c(C)c1 (mixture of isomers) | 4.87^[a]
Cc1cc(C(=O)NCCc2cccc3oc(C)nc23)c(Oc2cccc(C(F)(F)F)c2)nn1 | 2.96^[a]

Please find the next compound below.
q: Could you tell me which LogP is on file for Cc1ccc(C(F)(F)CNC(=O)c2c(Oc3cccc(C(F)(F)F)c3)nnc(Cl)c2NCCC2CC2)c(C)c1 ?
a: 4.95^[a]

====

Test: Measurement of Log P values by HPLC on reversed phase columns (EEC directive 79/831 Annex V.A8), methods [a], [b], [c]
Assay type: physicochemical
Conditions: reversed-phase HPLC column, method [a]
Measure name: chromatographic logP
Form rule: numeric answer, no unit written next to it.

Molecule | chromatographic logP
O=C(NCC(F)(F)c1ccc(Br)cc1Cl)c1cc(Cl)nnc1Oc1cccc(F)c1F | 4.27
Cc1ccc(C(F)(F)CNC(=O)c2cc(I)nnc2Oc2cccc(C(F)(F)F)c2)c(C)c1 | 4.67
Cc1ccc(C(F)(F)CNC(=O)c2cc(C)nnc2Oc2cccc(C3CCC3)c2)c(C)c1 | 3.85
O=C(NCC(F)(F)c1ccc(Br)cc1Cl)c1cc(Cl)nnc1Cl | 3.29

q: Could you tell me which chromatographic logP is on file for CSc1cc(C(=O)NCC(F)(F)c2ccc(C)cc2C)c(Oc2cccc(C(F)(F)F)c2)nn1 ?
a: 4.72

q: // query: Cc1ccc(C(F)(F)CNC(=O)c2c(Oc3cccc(Cl)c3)nnc(Cl)c2C)c(C)c1
a: 4.27

q: // query: Cc1ccc(C(F)(F)CNC(=O)c2c(Oc3cccc(C(F)(F)F)c3)nnc(Cl)c2-c2cccnc2)c(C)c1
a: 3.99

q: // query: CC(=O)c1cc(C(=O)NCC(F)c2ccc(Br)cc2Cl)c(Oc2cccc(C(F)(F)F)c2)nn1 (racemic)
a: 4.49

====

Test: Measurement of Log P values by HPLC on reversed phase columns (EEC directive 79/831 Annex V.A8), methods [a], [b], [c]
Format: physicochemical
Details: method [a]: LC-UV, acidic range, 0.1% formic acid in water and acetonitrile as eluent (10% to 95% acetonitrile); Table 3, compounds of formula (1)
Quick reference for LogP among some compounds

The following compounds have reported results that may help.
Compound | LogP
Cc1c(Cl)nnc(Oc2cccc(C(F)F)c2F)c1C(=O)O | 1.49^[a]
CC(=O)c1cccc(Oc2nnc(Cl)cc2C(=O)O)c1 | 1.01^[a]
Cc1nnc(Oc2cccc(C(F)F)c2F)c(C(=O)O)c1C | 0.96^[a]

q: Could you tell me which LogP is on file for CC(C)OC(=O)c1cc(-n2ccnc2)nnc1Oc1cccc(C(F)(F)F)c1 ?
a: 2.55^[a]

q: // query: CNc1c(Cl)nnc(Oc2cccc(C3CC3)c2F)c1C(=O)O
a: 1.97^[a]

====

Quick reference for LogP among some molecules
Experiment: Measurement of Log P values by HPLC on reversed phase columns (EEC directive 79/831 Annex V.A8), methods [a], [b], [c]
Format: physicochemical
Settings: method [a]: LC-UV, acidic range, 0.1% formic acid in water and acetonitrile as eluent; Table 5, compounds of formula (2)

Molecule | LogP
Cc1cc(C)c(C(F)(F)CN)c(F)c1 | 0.95^[a]
Cc1cc(C(F)F)ccc1C(F)CN (racemic) | 0.69^[a]
NCC(F)c1ccc(C2CC2)cc1Cl (racemic) | 1.15^[a]

q: Could you tell me which LogP is on file for NCC(F)c1ccc(I)cc1 (racemic) ?
a: 0.73^[a]

q: // query: NCC(F)(F)c1cccc(Br)c1Cl
a: 0.87^[a]

q: // query: C#Cc1ccc(C(F)(F)CN)c(C)c1
a: 0.93^[a]

====

Quick reference for chromatographic logP among some molecules
Assay: Measurement of Log P values by HPLC on reversed phase columns (EEC directive 79/831 Annex V.A8), methods [a], [b], [c]
Type: physicochemical
Settings: reversed-phase HPLC column, HPLC method [a]
Form rule: numeric answer, no unit written next to it.

Molecule | Measure name | Reported
Cc1cc(C2CC2)ccc1C(F)(F)CNC(=O)c1cc(Cl)nnc1Oc1cccc(C(F)(F)F)c1 [Compound I-240] | chromatographic logP | 4.77

q: Could you tell me which chromatographic logP is on file for CCc1c(Cl)nnc(Oc2cccc(C(F)(F)F)c2)c1C(=O)NCC(F)(F)c1ccc(Cl)cc1 [Compound I-254] ?
a: 4.51

q: // query: COC(=O)N(CC(F)(F)c1ccc(C)cc1C)C(=O)c1cc(Cl)nnc1Oc1cccc(C(F)(F)F)c1 [Compound I-335]
a: 5.19

q: // query: Cc1ccc(C(F)(F)CNC(=O)c2c(Oc3cccc(C(F)(F)F)c3)nnc(Cl)c2NC2COC2)c(C)c1 [Compound I-408]
a: 3.85

Cited source: patent US20230165252A1
